So I've got a bunch of compounds here, and I need their IC50 values.
- Tested On: HIF-2α HIS TAG-PASB Domain (Homo sapiens, UniProt Q99814)
- Construct: 100 nM HIF-2α HIS TAG-PASB Domain
- Sequence (Q99814 240-350 limits assumed): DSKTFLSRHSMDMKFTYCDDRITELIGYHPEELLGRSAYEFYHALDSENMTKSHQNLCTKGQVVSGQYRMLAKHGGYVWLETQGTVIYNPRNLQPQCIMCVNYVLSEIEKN
- Measurement Description: HIF-2α Scintillation Proximity Assay (SPA)
- Type: binding
- Condition Label: read-out: Scintillation Proximity Assay IC50
- Procedure: The total assay volume was about 100 μL in the following configuration: 2 μL compound in 100% DMSO, 88 μL buffer with protein and probe and 10 μL of SPA beads. […] The percent inhibition was determined and IC50 values were calculated using the Dotmatics system based on the following equation: % inhibition=[(high control−sample)/(high control−low control)]×100.

Sure, the documented IC50 for CS(=O)(=O)c1ccc(OC2CC(F)(F)C2)c2c1[C@H](O)C(F)(F)C2 is 50 to 249 nM

Measured IC50 of O=S(=O)(c1ccc(OCC2CC2)c2c1[C@H](O)C(F)(F)C2)C(F)F : 250 to 1000 nM

The reported IC50 of the compound O/N=C1/c2c(C(F)(F)F)ccc(OCCCF)c2[C@@H](F)C1(F)F [Compound 700] was 50 to 249 nM
